FYI, the data here is from PubChem BioAssay (NCATS).

# Details: Ebola virus entry assay, blue channel fluorescence
Activity calls are given as the source filed them. The rule behind the calls is not given here.
Allowed answers: 1 (active), -1 (inactive)

How was CC(=O)Oc1ccc(C(c2ccc(OC(C)=O)cc2)c2ccccn2)cc1 classified in this test?
-1

CCCN(CCC)C(=O)C(CCC(=O)O)NC(=O)c1ccccc1 (stereo unspecified) ?
-1

c1ccc(CCNc2nc(-c3ccccc3)cs2)cc1 ?
1

Cc1ccc(C(=O)Oc2ccc(C(O)CNC(C)(C)C)cc2OC(=O)c2ccc(C)cc2)cc1 (stereo unspecified) ?
1

CCCc1ncc(C[n+]2ccccc2C)c(N)n1 ?
-1

CCC1Nc2cc(Cl)c(S(N)(=O)=O)cc2S(=O)(=O)N1 (stereo unspecified) ?
-1
